Quick reference for tissue uptake at 72 h among some compounds
test: in vivo; design: species or system mice; conditions: male, NOD.Cg-Rag1tm1Mom Il2rgtm1Wjl/SzJ (NRG), mouse, iv, total radioactivity, Biodistribution: Muscle
Where a SMILES comes first, the peptide text is derived from it. Bridges are numbered along the chain shown (N, C = ends). [ ]: non-standard residue; d: D form. The star is where a group is joined. X3 = O=C(O)CN1CCN(CC(=O)O)CCN(CC(=O)N[C@@H](CS(=O)(=O)O)C(=O)N[C@@H](CCCCNC(=O)CCCc2ccc(Br)cc2)C(=O)*)CCN(CC(=O)O)CC1; X1 = O=C(O)CN1CCN(CC(=O)O)CCN(CC(=O)N[C@@H](CS(=O)(=O)O)C(=O)N[C@@H](CCCCNC(=O)CCCc2ccc(I)cc2)C(=O)*)CCN(CC(=O)O)CC1; 2Nal = N[C@@H](Cc1ccc2ccccc2c1)C(=O)O; Lys(iPr) = CC(C)NCCCC[C@H](N)C(=O)O
Hi! Could you send only the number? It should be in %ID/g, unit omitted.

INSERT INTO assay_data (compound, recorded_result) VALUES
  ('CC(C)NCCCC[C@H](NC(=O)[C@H]1CCC(=O)N[C@@H](CCCCNC(=O)[C@H](CCCCNC(=O)CCCc2ccc(Br)cc2)NC(=O)[C@H](CS(=O)(=O)O)NC(=O)CN2CCN(CC(=O)O)CCN(CC(=O)O)CCN(CC(=O)O)CC2)C(=O)N[C@@H](Cc2ccc(O)cc2)C(=O)N[C@@H](CCCCNC(C)C)C(=O)N[C@H](CCCNC(=N)N)C(=O)N[C@@H](Cc2ccc3ccccc3c2)C(=O)N[C@H](C)C(=O)N1)C(N)=O [[^177Lu]Lu-BL34L20, metal not drawn] (K(X3)Y[Lys(iPr)][dR][2Nal][dA][dE][Lys(iPr)]-NH2; lactam N-7)', 0.15);

Could you now consider this next compound?
Please report the recorded tissue uptake at 72 h for CC(C)NCCCC[C@H](NC(=O)[C@H]1CCC(=O)N[C@@H](CCCCNC(=O)[C@H](CCCCNC(=O)CCCc2ccc(I)cc2)NC(=O)[C@H](CS(=O)(=O)O)NC(=O)CN2CCN(CC(=O)O)CCN(CC(=O)O)CCN(CC(=O)O)CC2)C(=O)N[C@@H](Cc2ccc(O)cc2)C(=O)N[C@@H](CCCCNC(C)C)C(=O)N[C@H](CCCNC(=N)N)C(=O)N[C@@H](Cc2ccc3ccccc3c2)C(=O)N[C@H](C)C(=O)N1)C(N)=O [[^177Lu]Lu-BL34L11, metal not drawn] (K(X1)Y[Lys(iPr)][dR][2Nal][dA][dE][Lys(iPr)]-NH2; lactam N-7) .
0.38
